Biological target: Aspartate--tRNA(Asp/Asn) ligase (Mycobacterium tuberculosis (strain ATCC 25618 / H37Rv)); further: in the data most compounds retested in dose-response had high values
Sequence (whole entry): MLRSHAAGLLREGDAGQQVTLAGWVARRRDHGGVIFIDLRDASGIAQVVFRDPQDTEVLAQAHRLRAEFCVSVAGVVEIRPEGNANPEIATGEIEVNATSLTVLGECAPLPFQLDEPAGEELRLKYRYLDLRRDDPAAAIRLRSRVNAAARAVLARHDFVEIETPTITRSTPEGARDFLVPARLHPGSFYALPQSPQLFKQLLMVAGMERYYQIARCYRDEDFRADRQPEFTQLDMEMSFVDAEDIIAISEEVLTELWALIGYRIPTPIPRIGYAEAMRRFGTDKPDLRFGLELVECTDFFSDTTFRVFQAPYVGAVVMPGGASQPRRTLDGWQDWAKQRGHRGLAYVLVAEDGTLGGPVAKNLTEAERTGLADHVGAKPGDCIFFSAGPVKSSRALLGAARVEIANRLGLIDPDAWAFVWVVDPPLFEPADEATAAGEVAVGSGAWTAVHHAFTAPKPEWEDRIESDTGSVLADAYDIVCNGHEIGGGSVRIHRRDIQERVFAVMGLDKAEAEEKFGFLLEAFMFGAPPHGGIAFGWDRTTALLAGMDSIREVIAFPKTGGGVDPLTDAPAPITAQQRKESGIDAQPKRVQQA
Assay: Assay for Asp RNA synthetase-1 from Mycobacterium tuberculosis
Assay type: functional
Set-up: scale not given: direction of the effect not stated beside the values
Conditions: 30 µM

compound | Percent Effect [%]
CC(=O)N1CCC(c2nccnc2Oc2ccccc2)CC1 | -0.819
CCS(=O)(=O)N1Cc2nccn2CC(COc2cccnc2)C1 (stereo unspecified) | -1.75
Cc1cc(C2CCCN2CC(=O)N(CCC#N)c2ccccc2F)on1 (stereo unspecified) | 3.09
O=C(Nc1cc(C(F)(F)F)c[nH]c1=O)N1CCCSCC1 | 5.77
O=C1NCC2(CCCN(Cc3ccccc3F)C2)Oc2ccccc21 (stereo unspecified) | -5.17
O=C(CNCCn1cccn1)NCC1(c2ccccc2)CC1 | 1.09
CN(C)C(=O)N1CCOCC2(CCN(c3ccccn3)C2)C1 (stereo unspecified) | 1.11
COc1ccc(-c2n[nH]cc2C2SCC(=O)Nc3[nH]ncc32)cc1 (stereo unspecified) | 0.479
C[C@H]1C[C@@H]2CCN(C(=O)c3cccn3C)C[C@H]2O1 | -3.96
Cc1cc(CC(=O)N2CCN(CC3CC3)[C@@H]3CS(=O)(=O)C[C@@H]32)ccc1F | 3.29
CCCN1CCCn2nc(CNS(=O)(=O)c3ccc(C)cc3)cc2C1 | -1.38

* * *

target: Shiga toxin 2 (Escherichia coli O157:H7) (UniProt P09385+P09386); experiment: E. coli 0.157:H7 Shiga Toxin SOP - stx2 screening assay; type: functional; design: scale not given: direction of the effect not stated beside the values; conditions: 30 µM
Catalogue of Percent Effect readings, one per entry.

compound | Percent Effect / %
Cc1ccc(CN2CCC3(C2)C(=O)N(CC(C)C)c2ccccc23)s1 (stereo unspecified) | -42.5
CCCc1n[nH]cc1C(=O)N1CCC(c2nccn2CCOC)CC1 | 10
CN(C)S(=O)(=O)N1C[C@@H]2CC[C@H](C1)N(Cc1ccc3nsnc3c1)C2 | -1.59
Nc1nc(CN2CCOC(Cn3cncn3)C2)nc2ccccc12 (stereo unspecified) | 5.62
COC(=O)CN1CC(c2nc(Cc3ccccc3)no2)C1 | -14.5
CC(C)c1nnc2n1CCN(CC(=O)Nc1sccc1C#N)C2 | 16.9

Ref: ChEMBL document CHEMBL3988442
